Ref: paper PMC5394417

Molecular target: HA-I841A CaSR mutant (Rattus norvegicus, UniProt P48442, I841A)
Construct: mGluR5 signal peptide (N); expressed in transfected cells; host or cells: HEK293T
Sequence (P48442 20-1079 I841A): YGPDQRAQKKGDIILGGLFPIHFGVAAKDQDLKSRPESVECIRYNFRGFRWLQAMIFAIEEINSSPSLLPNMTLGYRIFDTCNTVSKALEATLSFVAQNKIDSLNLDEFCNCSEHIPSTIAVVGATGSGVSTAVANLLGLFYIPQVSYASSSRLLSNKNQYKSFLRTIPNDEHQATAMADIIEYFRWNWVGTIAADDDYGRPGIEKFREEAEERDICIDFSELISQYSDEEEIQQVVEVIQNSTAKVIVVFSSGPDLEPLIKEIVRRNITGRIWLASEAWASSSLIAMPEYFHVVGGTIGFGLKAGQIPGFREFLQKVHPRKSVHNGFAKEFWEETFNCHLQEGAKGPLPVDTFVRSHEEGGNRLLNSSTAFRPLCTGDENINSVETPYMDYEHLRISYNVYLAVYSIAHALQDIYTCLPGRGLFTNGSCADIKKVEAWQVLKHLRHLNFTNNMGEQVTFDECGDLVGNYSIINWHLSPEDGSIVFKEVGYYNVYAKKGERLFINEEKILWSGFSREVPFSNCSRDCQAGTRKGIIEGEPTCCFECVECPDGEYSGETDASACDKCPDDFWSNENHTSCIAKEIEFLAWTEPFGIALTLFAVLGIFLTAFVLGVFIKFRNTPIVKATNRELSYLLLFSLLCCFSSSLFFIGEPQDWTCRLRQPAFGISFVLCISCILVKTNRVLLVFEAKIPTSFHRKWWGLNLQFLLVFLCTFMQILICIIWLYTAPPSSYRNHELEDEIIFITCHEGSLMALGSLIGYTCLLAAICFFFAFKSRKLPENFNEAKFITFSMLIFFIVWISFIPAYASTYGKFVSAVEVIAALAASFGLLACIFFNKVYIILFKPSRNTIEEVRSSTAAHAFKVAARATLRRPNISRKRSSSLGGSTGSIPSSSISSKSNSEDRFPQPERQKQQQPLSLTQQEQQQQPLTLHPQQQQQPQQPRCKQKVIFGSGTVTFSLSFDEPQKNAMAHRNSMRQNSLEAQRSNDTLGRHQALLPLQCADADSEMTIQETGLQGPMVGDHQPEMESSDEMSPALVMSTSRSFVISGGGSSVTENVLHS
Test: IP-One assay, HEK293T transiently transfected
Type: cell-based
Settings: Ca^2+ with 1 μM NPS R-568
assay_endpoint: EC50

Prompt line: Please report the recorded EC50 for [Ca+2] [Ca^2+] .
Response line: 3.68 mM

###

Target: HA-F688A CaSR mutant (Rattus norvegicus, UniProt P48442, F688A)
Construct: mGluR5 signal peptide (N); expressed in transfected cells; host or cells: HEK293T
Sequence (P48442 20-1079 F688A): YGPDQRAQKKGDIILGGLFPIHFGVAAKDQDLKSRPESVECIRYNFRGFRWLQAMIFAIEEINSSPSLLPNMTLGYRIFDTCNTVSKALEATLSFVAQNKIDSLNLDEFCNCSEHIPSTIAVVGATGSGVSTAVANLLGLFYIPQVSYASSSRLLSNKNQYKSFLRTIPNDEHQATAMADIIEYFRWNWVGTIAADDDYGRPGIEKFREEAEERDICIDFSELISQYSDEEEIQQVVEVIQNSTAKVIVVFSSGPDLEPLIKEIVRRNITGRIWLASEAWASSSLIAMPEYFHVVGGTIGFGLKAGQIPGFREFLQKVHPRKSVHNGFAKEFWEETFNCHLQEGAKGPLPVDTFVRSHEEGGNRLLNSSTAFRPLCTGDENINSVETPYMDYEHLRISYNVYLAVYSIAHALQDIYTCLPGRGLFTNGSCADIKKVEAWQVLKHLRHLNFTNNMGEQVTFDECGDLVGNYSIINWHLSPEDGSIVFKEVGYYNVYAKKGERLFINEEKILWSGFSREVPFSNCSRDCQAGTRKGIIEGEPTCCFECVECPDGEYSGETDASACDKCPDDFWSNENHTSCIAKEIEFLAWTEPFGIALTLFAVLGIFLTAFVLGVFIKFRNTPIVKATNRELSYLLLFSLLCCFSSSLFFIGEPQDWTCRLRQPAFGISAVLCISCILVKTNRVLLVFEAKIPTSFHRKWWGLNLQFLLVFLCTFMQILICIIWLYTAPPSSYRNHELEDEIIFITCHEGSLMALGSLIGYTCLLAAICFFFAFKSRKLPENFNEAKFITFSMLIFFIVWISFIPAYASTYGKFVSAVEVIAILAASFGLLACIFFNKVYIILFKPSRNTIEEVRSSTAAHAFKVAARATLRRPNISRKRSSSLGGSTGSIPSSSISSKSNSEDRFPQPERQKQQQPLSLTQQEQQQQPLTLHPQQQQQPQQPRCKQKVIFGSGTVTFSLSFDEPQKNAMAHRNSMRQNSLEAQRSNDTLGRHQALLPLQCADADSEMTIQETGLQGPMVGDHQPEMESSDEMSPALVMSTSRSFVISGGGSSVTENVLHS
Assay: IP-One assay, HEK293T transiently transfected
Format: cell-based
Conditions: Ca^2+ alone
assay_endpoint: pEC50
API: returns pEC50 as number; meaning -log10 of concentration in mol/L.

Prompt line: Please report the recorded pEC50 for [Ca+2] [Ca^2+] .
Response line: 2.21
